tested on: ATP; assay: switch fluorescence ratio, 500 uM ATP over buffer (Cy3 cluster intensity, sum of 5 cycles each) (fold (ratio)); higher = stronger signal-on switching upon ATP binding; sequences stand for … in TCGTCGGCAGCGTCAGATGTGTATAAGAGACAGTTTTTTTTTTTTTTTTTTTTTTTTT…TC; conditions: aptamer strand: ATP DNA aptamer (quencher-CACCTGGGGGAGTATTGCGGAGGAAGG + anchor), 100 nM annealed; ATP concentration: 500 uM;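 also: ATP exposure 15 min at 22 °C before imaging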
Entries and their switch fluorescence ratio values follow.
API doc: respond with a numeric literal and nothing else, no unit.

// below: answered sequences
- query_sequence: "GGGTTTACTA"
  assay_target: "ATP"
  switch fluorescence ratio: 0.955
- query_sequence: "AAGATCACTG"
  assay_target: "ATP"
  switch fluorescence ratio: 1.06
- query_sequence: "AGGTTTTTTG"
  assay_target: "ATP"
  switch fluorescence ratio: 0.995
- query_sequence: "GCGGATGTGC"
  assay_target: "ATP"
  switch fluorescence ratio: 1.04
- query_sequence: "CCAAACTTAG"
  assay_target: "ATP"
  switch fluorescence ratio: 1.02

Field request: switch fluorescence ratio | item: CACGTTCAGC
1.04

Again, but for TATGAGATTT
0.955

====

system: ATP; assay: switch fluorescence ratio, 500 uM ATP over buffer (Cy3 cluster intensity, sum of 5 cycles each) (fold (ratio)); higher = stronger signal-on switching upon ATP binding; sequences stand for … in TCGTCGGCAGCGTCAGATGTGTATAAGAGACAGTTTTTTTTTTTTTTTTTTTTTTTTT…TC; settings: aptamer strand: ATP DNA aptamer (quencher-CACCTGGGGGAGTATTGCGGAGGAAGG + anchor), 100 nM annealed; ATP concentration: 500 uM;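 also: ATP exposure 15 min at 22 °C before imaging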
Entries and their switch fluorescence ratio values follow.
API doc: respond with a numeric literal and nothing else, no unit.

- query_sequence: "AGAAGGTGCC"
  observed: 1.05
- query_sequence: "GGGTGGGACG"
  observed: 1.23

Identify the measured switch fluorescence ratio of GTGTAAACGT for ATP.
1.04

Again, but for TTTAAGGGA
0.99

Again, but for TTTCTTGGCT
1.2

Again, but for GCGCTATGAG
1.04

Again, but for ACCGGGAGGT
1.01

Again, but for TTTAGGTAAT
1.02

Again, but for ATGCAGATCC
1.04

Again, but for ATCACAAATA
1.02

Again, but for GAGTAATTGT
0.997

Again, but for ATATTGACGG
1.09

Again, but for CATGGGGGTC
1

Again, but for AAAATTAGGC
0.919

Again, but for AATAAATTGA
1.02

Again, but for AATTGATTCT
1.03

Again, but for AGGTGGAAAC
1.01

Again, but for TAAATGTGTA
1.01

Again, but for CGGGGGAAGG
0.979

Again, but for GGCCCCTATT
1.02

Again, but for TTTATGAGGG
1.02

====

test system: ATP; test: switch fluorescence ratio, 500 uM ATP over buffer (Cy3 cluster intensity, sum of 5 cycles each) (fold (ratio)); higher = stronger signal-on switching upon ATP binding; sequences stand for … in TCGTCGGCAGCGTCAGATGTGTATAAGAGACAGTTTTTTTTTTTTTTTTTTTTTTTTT…TC; conditions: aptamer strand: ATP DNA aptamer (quencher-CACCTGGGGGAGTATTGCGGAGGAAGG + anchor), 100 nM annealed; ATP concentration: 500 uM;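 also: ATP exposure 15 min at 22 °C before imaging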
reported_endpoint: switch fluorescence ratio
API doc: respond with a numeric literal and nothing else, no unit.

// below: answered sequences
- query_sequence: "GATCATCAGG"
  switch fluorescence ratio: 1
- query_sequence: "TAACACGAAT"
  switch fluorescence ratio: 1.01
- query_sequence: "ATCAGGATCG"
  switch fluorescence ratio: 1.01
- query_sequence: "CCGTGGAAAG"
  switch fluorescence ratio: 1.02
- query_sequence: "AGGTAGGCCA"
  switch fluorescence ratio: 0.951
- query_sequence: "TTGGCGTCGT"
  switch fluorescence ratio: 0.995
- query_sequence: "GCGATCCCCT"
  switch fluorescence ratio: 1.77
- query_sequence: "GCCTTACAGT"
  switch fluorescence ratio: 0.985

Field request: switch fluorescence ratio | item: AACAGAGTTA
1.02

Again, but for TCAGGATGGA
1

Again, but for ACGGTATGTG
1.03

Again, but for TCGAGGGGGA
1.31

Again, but for CCTATTTGTA
0.974

Again, but for CCAGGAATAA
1.11
